SUBJECT OF TEST: JAK1 (Homo sapiens (Human), UniProt P23458)
Sequence (P23458 850-1154): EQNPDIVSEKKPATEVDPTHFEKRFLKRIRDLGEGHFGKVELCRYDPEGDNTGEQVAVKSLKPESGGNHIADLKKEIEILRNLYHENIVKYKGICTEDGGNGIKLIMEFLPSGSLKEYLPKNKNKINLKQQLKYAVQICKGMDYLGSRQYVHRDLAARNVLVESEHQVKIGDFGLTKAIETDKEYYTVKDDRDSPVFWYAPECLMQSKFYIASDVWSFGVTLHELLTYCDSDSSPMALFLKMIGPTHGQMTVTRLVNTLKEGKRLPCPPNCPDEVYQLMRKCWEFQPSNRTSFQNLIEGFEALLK
PROCEDURE DETAILS: JAK kinase assay (HTRF), JAK1
STUDY CONDITIONS: catalytic domain, ATP at Km (7 μM)
Catalogue of pEC50 readings, one per entry.
Conceptually, pEC50 converts a concentration in mol/L into minus its log10.

Solved cases (3 shown):
>  <STRUCTURE STRING>
O=C(N[C@@H](CO)c1ccccn1)[C@H]1CCN(c2ncnc3[nH]ccc23)CC12CC2

>  <pEC50>
7.79

$$$$
>  <STRUCTURE STRING>
O=C(NC[C@@H](O)c1ccc(F)cc1)[C@H]1CCN(c2ncnc3[nH]ccc23)CC12CC2

>  <pEC50>
9.22

$$$$
>  <STRUCTURE STRING>
N#Cc1ccc([C@H](CO)NC(=O)[C@H]2CCN(c3ncnc4[nH]ccc34)CC23CC3)nc1

>  <pEC50>
8.51

$$$$

Record summary for `O=C(NC[C@H](O)C1CCCCC1)[C@H]1CCN(c2ncnc3[nH]ccc23)CC12CC2` : reported pEC50 = 9.05

These entries and their values trace back to patent US10799507B2.
